tested on: NCI-H1876 tumor spheroid viability; experiment: Anticancer human tumor NCI-H1876 cell line growth inhibition; conditions: second compound 94.9 pM; first compound 0.0316 µM; hits give low values; spheroids with HUVEC and MSC;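 note: spheroids exposed to compounds for seven days before the viability read; percent of DMSO vehicle control viability so 100% = vehicle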
measure: viability, T/C

See these solved cases before continuing.
Look up viability, T/C: [2H]c1nc(C)nc([2H])c1-c1cc(NC[C@@H](C)c2cccc3c(C(=O)NC)ccnc23)ncn1 + COc1cc2c(cc1O)CCNC21CSC2c3c(OC(C)=O)c(C)c4c(c3C(COC1=O)N1C(O)C3Cc5cc(C)c(OC)c(O)c5C(C21)N3C)OCO4
90.8%

Moving on to the next compound: CC1COCCN1c1cc(-c2ccnn2C)c2ccnc(-c3ccn[nH]3)c2n1 (centres undefined) + COc1cc2c(cc1O)CCNC21CSC2c3c(OC(C)=O)c(C)c4c(c3C(COC1=O)N1C(O)C3Cc5cc(C)c(OC)c(O)c5C(C21)N3C)OCO4
17.4%

***
Look up viability, T/C: COc1ccc([C@@H](O)c2cc(-c3ncnc4cc(N5CCOCC5)ccc34)c(F)cc2Cl)nn1 + COc1cc2c(cc1O)CCNC21CSC2c3c(OC(C)=O)c(C)c4c(c3C(COC1=O)N1C(O)C3Cc5cc(C)c(OC)c(O)c5C(C21)N3C)OCO4
93%

Moving on to the next compound: COc1cc(C)[nH]c(=O)c1CN1CCc2c(Cl)cc(C(OC)C3COC3)c(Cl)c2C1=O (centres undefined) + COc1cc2c(cc1O)CCNC21CSC2c3c(OC(C)=O)c(C)c4c(c3C(COC1=O)N1C(O)C3Cc5cc(C)c(OC)c(O)c5C(C21)N3C)OCO4
91.6%
